Molecular target: Caspase-6 (Homo sapiens)
Sequence (P55212 whole entry): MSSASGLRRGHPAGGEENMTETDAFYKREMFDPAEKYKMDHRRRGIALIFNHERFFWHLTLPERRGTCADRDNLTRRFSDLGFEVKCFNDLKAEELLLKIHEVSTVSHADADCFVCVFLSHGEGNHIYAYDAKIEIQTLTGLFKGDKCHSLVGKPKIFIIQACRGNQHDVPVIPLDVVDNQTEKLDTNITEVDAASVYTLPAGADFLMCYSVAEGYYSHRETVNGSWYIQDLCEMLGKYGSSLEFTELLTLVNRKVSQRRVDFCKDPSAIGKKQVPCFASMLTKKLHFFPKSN
Assay: Inhibition of Caspase-6
measured_property: IC50 (nM)

>  <molecule>
CC(C)C(NC(=O)COc1c(C(=O)O)ccc2ccccc12)C(=O)N[C@H]1CC(=O)OC1O (some centres undefined)

>  <u>
nM

>  <IC50>
1430

$$$$

I: CC(C)C(NC(=O)COc1cc2ccccc2cc1C(=O)O)C(=O)N[C@H]1CC(=O)OC1O (some centres undefined)
II: CC(C)C(NC(=O)COc1ccc2ccccc2c1C(=O)O)C(=O)N[C@H]1CC(=O)OC1O (some centres undefined)
## Task Record comparison, field IC50: mark the lower of I and II . Give the chosen item's label as your response.
## Result I
(I: 1900 nM, II: 3610 nM)
